- ASSAY SYSTEM: Adenosine receptor A3 (Oryctolagus cuniculus, UniProt O02667)
- Sequence (O02667 whole entry): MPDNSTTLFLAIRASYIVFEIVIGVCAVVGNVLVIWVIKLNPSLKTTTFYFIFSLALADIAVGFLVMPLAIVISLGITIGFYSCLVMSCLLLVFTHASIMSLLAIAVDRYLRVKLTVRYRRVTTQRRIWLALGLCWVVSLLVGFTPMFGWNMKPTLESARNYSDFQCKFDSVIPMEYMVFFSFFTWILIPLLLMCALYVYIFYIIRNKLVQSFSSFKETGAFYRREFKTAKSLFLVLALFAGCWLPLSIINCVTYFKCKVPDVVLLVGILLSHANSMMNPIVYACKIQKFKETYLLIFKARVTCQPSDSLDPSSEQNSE
READOUT NAME: Ki (nM)

CCCn1c(=O)c2[nH]c(C3CCCC3)nc2n(CCC)c1=O [DPCPX] ... 1120
CCNC(=O)[C@H]1O[C@@H](n2cnc3c(N)ncnc32)[C@H](O)[C@@H]1O ... 27
OC[C@H]1O[C@@H](n2cnc3c(NC4CCCC4)ncnc32)[C@H](O)[C@@H]1O ... 49

(P) Nc1ccc(CCNc2ncnc3c2ncn3C2OC(CO)C(O)C2O)cc1 (stereo not given) [ChEMBL_198532]
(Q) CCCn1c(=O)c2[nH]c(-c3ccc(C=CC(=O)O)cc3)nc2n(CCC)c1=O [NSC_129447]
In: Between the two listed entries P and Q , which has its Ki at the higher number? # answer = label of selected item
Out: Q
